System: UO-31
run description: panel of 60 human tumor cell lines, growth inhibition (Renal Cancer)
particulars: Homo sapiens, UO-31, read-out: TGI
measured property: IC (TGI) (µM)
Give your result in µM as a bare value.

Here is how some compounds turned out for IC (TGI).
C=C1C(=O)O[C@H]2[C@H]1CC/C(COC(=O)Nc1n[nH]c(SC)n1)=C\CC[C@@]1(C)O[C@@H]21	7.86
C=C1C(=O)O[C@H]2[C@H]1CC/C(COC(=O)NCCN1CCCC1)=C\CC[C@@]1(C)O[C@@H]21	31.8
C=C1C(=O)O[C@H]2[C@H]1CC/C(COC(=O)OCCCN1CCCCC1)=C\CC[C@@]1(C)O[C@@H]21	12.5
C=C1C(=O)O[C@H]2[C@H]1CC/C(COC(=O)NCCCCCCO)=C\CC[C@@]1(C)O[C@@H]21	21.2

Kindly review the next compound as well.
Name the recorded IC (TGI) for "C=C1C(=O)O[C@H]2[C@H]1CC/C(COC(=S)n1ccnc1)=C\CC[C@@]1(C)O[C@@H]21" .
23.4

----------
Below are compounds with their CC50 as measured on MALME-3M.
Value expressed in µM; do not type the unit.

C=C1C(=O)O[C@H]2[C@H]1CC/C(COC(=O)NCCN1CCCCC1)=C\CC[C@@]1(C)O[C@@H]21	50.6
C=C1C(=O)O[C@H]2[C@H]1CC/C(COC(=O)CCC(=O)N1CCC(C)CC1)=C\CC[C@@]1(C)O[C@@H]21	53.6

Lab request: please report CC50 under test system MALME-3M for "C=C1C(=O)O[C@H]2[C@H]1CC/C(COC(=O)N1CCC(F)(F)CC1)=C\CC[C@@]1(C)O[C@@H]21"
21.6

Now consider "C=C1C(=O)O[C@H]2[C@H]1CC/C(COC(=O)N1CCN(C)CC1)=C\CC[C@@]1(C)O[C@@H]21" and answer again.
65.4

"C=C1C(=O)O[C@H]2[C@H]1CC/C(COC(=O)NC)=C\CC[C@@]1(C)O[C@@H]21" ?
55

Would you mind doing "C=C1C(=O)O[C@H]2[C@H]1CC/C(COC(=O)NCCO)=C\CC[C@@]1(C)O[C@@H]21" as well?
73.3

----------
Tested on: MDA-MB-435
run description: panel of 60 human tumor cell lines, growth inhibition (Melanoma)
particulars: Homo sapiens, MDA-MB-435
Could you mark each record Condition met if its GI50 falls strictly under 4 µM, and Condition not met if it equals or exceeds it?

API: query returns whether the compound falls strictly under 4 µM in GI50. Query: "C=C1C(=O)O[C@H]2[C@H]1CC/C(COC(=O)Nc1n[nH]c(SC)n1)=C\CC[C@@]1(C)O[C@@H]21"
Condition met

Proceed to "C=C1C(=O)O[C@H]2[C@H]1CC/C(COC(=O)NCCN1CCCC1)=C\CC[C@@]1(C)O[C@@H]21"
Condition not met

Same lookup for "C=C1C(=O)O[C@H]2[C@H]1CC/C(COC(=O)OC)=C\CC[C@@]1(C)O[C@@H]21" , please.
Condition met

Ok, now "C=C1C(=O)O[C@H]2[C@H]1CC/C(COC(=O)CCC(=O)NCc1ccc(Cl)nc1)=C\CC[C@@]1(C)O[C@@H]21"
Condition not met

Consider next the compound "C=C1C(=O)O[C@H]2[C@H]1CC/C(COC(=O)OCCCN1CCCCC1)=C\CC[C@@]1(C)O[C@@H]21" in the same way.
Condition met

----------
Tested on: TK-10
run description: panel of 60 human tumor cell lines, growth inhibition (Renal Cancer)
particulars: TK-10; Log10 Concentration −5.0
measured property: Percent Growth (%)
Write down the numeric answer in % and omit the unit.

# annotated cases, reported Percent Growth shown
C=C1C(=O)O[C@H]2[C@H]1CC/C(COC(=O)N1CCC(F)(F)CC1)=C\CC[C@@]1(C)O[C@@H]21	−23
C=C1C(=O)O[C@H]2[C@H]1CC/C(COC(=O)NC)=C\CC[C@@]1(C)O[C@@H]21	−5
C=C1C(=O)O[C@H]2[C@H]1CC/C(COC(=O)CCC(=O)NCc1ccc(Cl)nc1)=C\CC[C@@]1(C)O[C@@H]21	15

# lookup: Percent Growth of "C=C1C(=O)O[C@H]2[C@H]1CC/C(COC(=O)NCCN1CCCCC1)=C\CC[C@@]1(C)O[C@@H]21"
5

----------
These molecules were tested on NCI-H522; CC50 is the recorded read-out.
Use µM as the unit, but write only the number.

As a guide, the following entries are already answered.
C=C1C(=O)O[C@H]2[C@H]1CC/C(COC(=O)NCCO)=C\CC[C@@]1(C)O[C@@H]21	9.13
C=C1C(=O)O[C@H]2[C@H]1CC/C(COC(=O)NC)=C\CC[C@@]1(C)O[C@@H]21	6.85
C=C1C(=O)O[C@H]2[C@H]1CC/C(COC(=O)NCCN1CCCCC1)=C\CC[C@@]1(C)O[C@@H]21	7.25
C=C1C(=O)O[C@H]2[C@H]1CC/C(COC(=O)N1CCC(F)(F)CC1)=C\CC[C@@]1(C)O[C@@H]21	6.08
C=C1C(=O)O[C@H]2[C@H]1CC/C(COC(=O)N1CCN(C)CC1)=C\CC[C@@]1(C)O[C@@H]21	8.2

Shifting focus to the molecule that follows.
Query: CC50; subject: "C=C1C(=O)O[C@H]2[C@H]1CC/C(COC(=O)CCC(=O)N1CCC(C)CC1)=C\CC[C@@]1(C)O[C@@H]21"
5.99

----------
Tested on: DU-145
run description: panel of 60 human tumor cell lines, growth inhibition (Prostate Cancer)
particulars: Homo sapiens, DU-145, read-out: LC50
Consider the following compounds and their measured CC50 readings.
Please give a number only; it is taken to be in µM.

Some compounds with recorded CC50:
C=C1C(=O)O[C@H]2[C@H]1CC/C(COC(=O)OCCCN1CCCCC1)=C\CC[C@@]1(C)O[C@@H]21	35.3
C=C1C(=O)O[C@H]2[C@H]1CC/C(COC(=O)OCCN(C)C)=C\CC[C@@]1(C)O[C@@H]21	37.7
C=C1C(=O)O[C@H]2[C@H]1CC/C(COC(=O)NCCc1ccccn1)=C\CC[C@@]1(C)O[C@@H]21	47

// below: CC50 requested for another compound
What value of CC50 on DU-145 does "C=C1C(=O)O[C@H]2[C@H]1CC/C(COC(=O)NCCCCCCO)=C\CC[C@@]1(C)O[C@@H]21" have?
39.4

----------
Tested on: RPMI-8226
run description: panel of 60 human tumor cell lines, growth inhibition (Leukemia)
particulars: RPMI-8226; Log10 Concentration −7.0
Reported Percent Growth by item:
Give your result in % as a bare value.

// query Percent Growth value for entry "C=C1C(=O)O[C@H]2[C@H]1CC/C(COC(=O)NCCN1CCOCC1)=C\CC[C@@]1(C)O[C@@H]21"
97

Cool, now "C=C1C(=O)O[C@H]2[C@H]1CC/C(COC(=O)Nc1n[nH]c(SC)n1)=C\CC[C@@]1(C)O[C@@H]21"
100

Also, "C=C1C(=O)O[C@H]2[C@H]1CC/C(COC(=O)NCCO)=C\CC[C@@]1(C)O[C@@H]21" please.
97

Also "C=C1C(=O)O[C@H]2[C@H]1CC/C(COC(=O)CCC(=O)NCc1ccc(Cl)nc1)=C\CC[C@@]1(C)O[C@@H]21" , if possible.
107

And what about the compound "C=C1C(=O)O[C@H]2[C@H]1CC/C(COC(=O)NC)=C\CC[C@@]1(C)O[C@@H]21" ?
94

----------
Tested on: HT29
run description: panel of 60 human tumor cell lines, growth inhibition (Colon Cancer)
particulars: Homo sapiens, HT-29
measured property: GI50
Respond with a number, then the unit of measure.

C=C1C(=O)O[C@H]2[C@H]1CC/C(COC(=O)Nc1n[nH]c(SC)n1)=C\CC[C@@]1(C)O[C@@H]21 [JVM 64]	2.55 µM
C=C1C(=O)O[C@H]2[C@H]1CC/C(COC(=O)OCCN(C)C)=C\CC[C@@]1(C)O[C@@H]21 [JVM 2-35]	21.8 µM
C=C1C(=O)O[C@H]2[C@H]1CC/C(COC(=O)NCCCCCCO)=C\CC[C@@]1(C)O[C@@H]21 [JVM 2-31]	19 µM

Query (molecule): C=C1C(=O)O[C@H]2[C@H]1CC/C(COC(=O)NCCN1CCCC1)=C\CC[C@@]1(C)O[C@@H]21 [JVM 59] ; field requested: GI50
11.7 µM

----------
Tested on: MALME-3M
run description: panel of 60 human tumor cell lines, growth inhibition (Melanoma)
particulars: MALME-3M; Log10 Concentration −8.0
measured property: Percent Growth (%)
Answer format: numeric, % implied, no suffix.

C=C1C(=O)O[C@H]2[C@H]1CC/C(COC(=O)Nc1n[nH]c(SC)n1)=C\CC[C@@]1(C)O[C@@H]21 [JVM 64]	104
C=C1C(=O)O[C@H]2[C@H]1CC/C(COC(=O)NCCO)=C\CC[C@@]1(C)O[C@@H]21 [JVM 2-50]	107
C=C1C(=O)O[C@H]2[C@H]1CC/C(COC(=O)NCCc1ccccn1)=C\CC[C@@]1(C)O[C@@H]21 [JVM 61]	114

# input for lookup
Quick one: Percent Growth for C=C1C(=O)O[C@H]2[C@H]1CC/C(COC(=O)CCC(=O)N1CCC(C)CC1)=C\CC[C@@]1(C)O[C@@H]21 [JVM 2-70] ?
106
